z-score for assorted compounds
- MEASUREMENT_NOTES: basal S. cerevisiae growth modulation, no modifier, primary screen, OD600, strain BY4716, 24 h, basal condition (AID 1173)
- ASSAY_CONDITIONS: OD600, 24 h, higher = more signal, called active from +8 up or from −8 down
// response body must contain only the number

- COMPOUND: "CCOC(=O)C[C@H]1[C@H](OC(=O)c2ccccc2-c2ccccc2)[C@@H](NC(=O)c2ccc(-c3ccccc3)cc2)c2cc(OCCCO)ccc2N1C(=O)Cc1ccc(OC)cc1"
  z-score: -0.034

*Q* Please supply the value of reported z-score for the item O=C1C2C=CC(C(O)Cc3ccccc3)N(Nc3ccc([N+](=O)[O-])cc3)C2C(=O)N1c1ccccc1 (configuration not stated)
*A* -0.168

*Q* Please supply the value of reported z-score for the item CO[C@@H]1COC(=O)[C@@H]2CCCN2C(=O)CC=C[C@@H](C)[C@H](OC)COC(=O)[C@@H]2CCCN2C(=O)CC=C[C@H]1C
*A* -1.45

*Q* Please supply the value of reported z-score for the item COc1ccc(CCNC(=O)[C@@]2(c3ccc([N+](=O)[O-])cc3)CC(=O)N(C(C)C)[C@@H]2c2ccc(CO)cc2)cc1
*A* -1.12

*Q* Please supply the value of reported z-score for the item C=C(CCCC)/C(=C/C[C@@H](OC(=O)c1ccncc1)c1ccc(CO)o1)c1cnc2ccccc2c1
*A* -1.95

*Q* Please supply the value of reported z-score for the item O=C1O[C@@H](c2ccccc2)[C@@H](c2ccccc2)N2[C@@H](c3ccc(OCCO)cc3)[C@]3(C(=O)Nc4ccc(C#CCCO)cc43)[C@@H](C(=O)N3CCN(c4ncccn4)CC3)[C@H]12
*A* 1.35

*Q* Please supply the value of reported z-score for the item COC(=O)C1=CC(c2ccc(CO)cc2)=CC(c2cccs2)N(Cc2cccc(OC(F)(F)F)c2)C=C1C(=O)OC (configuration not stated)
*A* -0.871
